Reference for the values: the supplement of paper PMC9262897

# Tested on: E. coli TESEC Mtb DapB
# assayExplanation: growth (OD600 after 10 h); higher = more growth (less inhibition)
# reportedConditions: arabinose induction (level): Low; compound 0.1 mM; raw OD600 reference: median of DMSO wells 0.227, cell-free background 0.041
Where a name gives a salt, the structure may show the parent alone.
measure: growth
Give bare numbers.

compound	endpointValue
Nc1ccc(/N=N/c2ccccc2)c(N)n1 [Phenazopyridine hydrochloride]	0.189
CC(COc1ccccc1)NC(C)C(O)c1ccc(O)cc1 (configuration not stated) [Isoxsuprine hydrochloride]	0.271
CNNCc1ccc(C(=O)NC(C)C)cc1 [Procarbazine hydrochloride]	0.27
CC(C)OC(=O)C(C)(C)Oc1ccc(C(=O)c2ccc(Cl)cc2)cc1 [Fenofibrate]	0.215
CCN(CC)C(C)CN1c2ccccc2Sc2ccccc21 (configuration not stated) [Ethopropazine hydrochloride]	0.236
Cc1ccc(/C(=C\CN2CCCC2)c2ccccn2)cc1 [Triprolidine hydrochloride]	0.214

Switching to the query record.
// growth lookup, compound = CC[C@H]1OC(=O)[C@H](C)[C@@H](O[C@H]2C[C@@](C)(OC)[C@@H](O)[C@H](C)O2)[C@H](C)[C@@H](O[C@@H]2O[C@H](C)C[C@H](N(C)C)[C@H]2O)[C@](C)(O)C[C@@H](C)CN(C)[C@H](C)[C@@H](O)[C@]1(C)O [Azithromycin] , result: 0.0998

###

# System: E. coli TESEC Mtb Alr
# assayExplanation: growth (OD600 after 10 h); higher = more growth (less inhibition)
# reportedConditions: arabinose 1000 nM; compound 0.1 mM; raw OD600 reference: median of DMSO wells 0.294, cell-free background 0.041
Where a name gives a salt, the structure may show the parent alone.
Please note: t applies when growth is 0.2 or greater, and f applies otherwise.

Solved cases (4 shown):
>>> df
                                   compound  assignedcategory
0  CC(=O)c1ccc2c(c1)N(CCCN1CCC(CCO)CC1)c1ccccc1S2                 f
1  CS(=O)(=O)c1ccc([C@@H](O)[C@@H](CO)NC(=O)C(Cl)Cl)cc1                 f
2  Cc1ccc(C(=O)c2ccc(CC(=O)O)n2C)cc1 [Tolmetin sodium salt dihydrate]                 t
3               Cc1cccc(Nc2ccccc2C(=O)O)c1C                 f

Determine whether this compound has growth no lower than 0.2: Cc1cc(C(C)(C)C)cc(C)c1CC1=NCCN1 [Xylometazoline hydrochloride]
t

###

# System: E. coli TESEC Mtb Alr
# assayExplanation: growth (OD600 after 10 h); higher = more growth (less inhibition)
# reportedConditions: arabinose 1000000 nM; compound 0.1 mM; raw OD600 reference: median of DMSO wells 0.193, cell-free background 0.041
Structures can show the parent of a compound that is named as a salt.
measure: growth

// solved cases for growth follow
>>> print(df.to_string())
                                   compound  measure  endpointvalue
0  CCN(CC)CCCC(C)Nc1c2ccc(Cl)cc2nc2ccc(OC)cc12 (centres undefined) [Quinacrine dihydrochloride hydrate]   growth          0.045
1  CC[N+](CC)(CC(=O)Nc1c(C)cccc1C)Cc1ccccc1 [Denatonium benzoate]   growth          0.173
2  NC1CCN(c2nc3c(cc2F)c(=O)c(C(=O)O)cn3-c2ccc(F)cc2F)C1 (centres undefined) [Tosufloxacin hydrochloride]   growth         0.0452

Let us move to another entry and its growth.
Measured growth of Cc1c(Cl)cccc1Nc1ncccc1C(=O)O [Clonixin Lysinate] : 0.0952

###

# Tested on: E. coli TESEC Mtb Asd
# assayExplanation: growth (OD600 after 10 h); higher = more growth (less inhibition)
# reportedConditions: arabinose induction (level): Low; compound 0.1 mM; raw OD600 reference: median of DMSO wells 0.417, cell-free background 0.041
Counter-ions that a name gives are not always drawn.
Assign growth to each entry below.
One number for each entry.

molecule	endpointValue
CCOC(=O)O[C@]1(C(=O)COC(=O)CC)CC[C@H]2[C@@H]3CCC4=CC(=O)C=C[C@]4(C)[C@H]3[C@@H](O)C[C@@]21C [Prednicarbate]	0.37
Clc1ccc(C(Cn2ccnc2)OCc2ccsc2Cl)c(Cl)c1 (stereo not drawn)	0.0482
CC(Cc1cccc(C(F)(F)F)c1)NCCOC(=O)c1ccccc1 (stereo not drawn)	0.153
CCN(CC)C(=O)c1ccc(O)c(OC)c1	0.397
Cc1c(NC(C)C)c(=O)n(-c2ccccc2)n1C [Isopyrin hydrochloride]	0.429
CC(C)NC[C@H](O)COc1cccc2ccccc12 [(S)-propranolol hydrochloride]	0.308
CCC(=O)OCC(=O)[C@@]1(OC(=O)CC)[C@@H](C)C[C@H]2[C@@H]3CCC4=CC(=O)C=C[C@]4(C)[C@@]3(Cl)[C@@H](O)C[C@@]21C [Beclomethasone dipropionate]	0.3

Entry CN(C)CCC(c1ccccc1)c1ccccn1 (stereo not drawn) [Pheniramine maleate] , growth reported as 0.408

###

# Tested on: E. coli TESEC Mtb Alr
# assayExplanation: growth (OD600 after 10 h); higher = more growth (less inhibition)
# reportedConditions: arabinose 10000000 nM; compound 0.1 mM; raw OD600 reference: median of DMSO wells […], cell-free background 0.052
Where a name gives a salt, the structure may show the parent alone.
Classify by measured growth: Fulfilled if it is equal to or exceeds 0.3, Not fulfilled if it is smaller.

Some entries whose results are on file:
compound	assignedCategory
CN1CCN2c3ccccc3Cc3ccccc3C2C1 (stereo unspecified) [Mianserine hydrochloride]	Fulfilled
CCCCc1oc2ccccc2c1C(=O)c1cc(I)c(OCCN(CC)CC)c(I)c1 [Amiodarone hydrochloride]	Fulfilled
Cc1c(-c2ccccc2)oc2c(C(=O)OCCN3CCCCC3)cccc2c1=O [Flavoxate hydrochloride]	Not fulfilled

Form field: growth at least 0.3? Entry: "CC(C)(C(=O)c1cccnc1)c1cccnc1"
Fulfilled

# check: growth of CNCCC=C1c2ccccc2CCc2ccccc21 [Nortriptyline hydrochloride] is greater than or equal to 0.3
Not fulfilled

Hello, I need to know if N#Cc1cc(NC(=O)C(=O)O)c(Cl)c(NC(=O)C(=O)O)c1 [Lodoxamide] has measured growth not below 0.3. Thanks!
Fulfilled

Can CN(C)CCC[C@@]1(c2ccc(F)cc2)OCc2cc(C#N)ccc21 [Escitalopram oxalate] be said to have growth at or above 0.3?
Fulfilled

Check the entry "COC(=O)Nc1nc2cc(C(=O)c3cccs3)ccc2[nH]1" : does growth equal or exceed 0.3?
Fulfilled

Determine whether measured growth meets or exceeds 0.3 for "CC(=O)[C@H]1CC[C@H]2[C@@H]3CC=C4C[C@@H](O)CC[C@]4(C)[C@H]3CC[C@]12C"
Not fulfilled

Is growth for O=C(C1CCCCC1)N1CC(=O)N2CCc3ccccc3C2C1 (stereo unspecified) at or above 0.3?
Fulfilled

Answer whether growth of "Clc1ccc2c(c1)C(N1CCNCC1)=Nc1ccccc1O2" is greater than or equal to 0.3.
Not fulfilled

For this compound, is measured growth 0.3 or higher? NS(=O)(=O)c1cc(Cl)c(Cl)c(S(N)(=O)=O)c1 [Dichlorphenamide]
Fulfilled

Exam item: decide whether the reported growth for "CC1=C(/C=C/C(C)=C/C=C/C(C)=C\C(=O)O)C(C)(C)CCC1" is at least 0.3.
Not fulfilled

Kindly determine if growth recorded for C=Cc1c(C)c2cc3nc(cc4[nH]c(cc5nc(cc1[nH]2)C(C)=C5CCC(=O)O)c(CCC(=O)OC)c4C)[C@@]1(C)C3=CC=C(C(=O)OC)C1C(=O)OC.C=Cc1c(C)c2cc3nc(cc4[nH]c(cc5nc(cc1[nH]2)C(C)=C5CCC(=O)OC)c(CCC(=O)O)c4C)[C@@]1(C)C3=CC=C(C(=O)OC)C1C(=O)OC (stereo partly specified) is above or exactly 0.3.
Fulfilled

Does the compound "Cc1cc(=O)oc2cc(O)ccc12" have recorded growth that is 0.3 or more?
Fulfilled

###

For each of the compounds below, state its growth.
# Test system: E. coli TESEC Mtb Alr
# assayExplanation: growth (OD600 after 10 h); higher = more growth (less inhibition)
# reportedConditions: arabinose 1000000 nM; compound 0.1 mM; raw OD600 reference: median of DMSO wells 0.193, cell-free background 0.041
Where a name gives a salt, the structure may show the parent alone.
Numbers only.

Sample answers from the record:
compound	target	growth
Nc1nc(=O)c2nc(CNc3ccc(C(=O)N[C@@H](CCC(=O)O)C(=O)O)cc3)cnc2[nH]1 [Folic acid]	E. coli TESEC Mtb Alr	0.149
CCCCN(CCCC)CCC(O)c1cc2c(Cl)cc(Cl)cc2c2cc(C(F)(F)F)ccc12 (centres undefined) [Halofantrine hydrochloride]	E. coli TESEC Mtb Alr	0.18
CCCCOC(=O)c1ccc(N)cc1 [Butamben]	E. coli TESEC Mtb Alr	0.233

Now consider the entry below.
Sample CO/N=C(\C(=O)N[C@@H]1C(=O)N2C(C(=O)OC(C)OC(C)=O)=C(COC(N)=O)CS[C@H]12)c1ccco1 (some centres undefined) [Cefuroxime axetil] ; growth observed: 0.166
